System: NCI-H226
Assay: NCI tumour cell line growth inhibition, 48 h
Active and inactive are the calls of the source. Rule as the data show it: active = GI50 up to about 1.1 µM and inactive = higher.
measured.parameter: GI50

> print(dat)
                                   compound  assayed.system                result
1  C=C1C(=O)O[C@H]2C(=O)[C@H](C)CCC/C(C)=C/CC[C@@]3(C)O[C@@H]3C[C@@H]12        NCI-H226    17.7 µM (inactive)
2  COc1ccc2c(=O)cc(-c3ccc(OC)c(OC)c3OC)oc2c1        NCI-H226  > 65.9 µM (inactive)
3  Cc1nc(-n2nc(-c3ccccc3)cc2-c2ccccc2)sc1C(=O)CC(=O)C(=O)Nc1ccc(O)cc1        NCI-H226   > 100 µM (inactive)
4  O=C1c2ccccc2C(=O)c2c(O)c(NCCNCCO)cc(O)c21        NCI-H226    3.83 µM (inactive)
5  NC(CSCc1ccccc1)C(=O)O (stereo not given)        NCI-H226   > 100 µM (inactive)

Measured values drawn from ChEMBL document CHEMBL1201862 for this set.
